- study_system: HRP-labeled WGA
- assay_overview: Enzyme-linked lectin assay
- experimental_setup: inhibition of binding of HRP-labeled WGA to covalently immobilized GlcNAc

>  <molecule>
CC(=O)N[C@@H]1[C@@H](O)[C@H](O)[C@@H](CO)O[C@H]1O [GlcNAc, N-acetylglucosamine]

>  <unit_string>
mM

>  <IC50>
15

$$$$

Every entry's value here was drawn from paper PMC8159369.
